Below, each entry is listed with its recorded IC50.
Target: full length USP7 (Homo sapiens (Human))
Sequence (Q93009 whole entry): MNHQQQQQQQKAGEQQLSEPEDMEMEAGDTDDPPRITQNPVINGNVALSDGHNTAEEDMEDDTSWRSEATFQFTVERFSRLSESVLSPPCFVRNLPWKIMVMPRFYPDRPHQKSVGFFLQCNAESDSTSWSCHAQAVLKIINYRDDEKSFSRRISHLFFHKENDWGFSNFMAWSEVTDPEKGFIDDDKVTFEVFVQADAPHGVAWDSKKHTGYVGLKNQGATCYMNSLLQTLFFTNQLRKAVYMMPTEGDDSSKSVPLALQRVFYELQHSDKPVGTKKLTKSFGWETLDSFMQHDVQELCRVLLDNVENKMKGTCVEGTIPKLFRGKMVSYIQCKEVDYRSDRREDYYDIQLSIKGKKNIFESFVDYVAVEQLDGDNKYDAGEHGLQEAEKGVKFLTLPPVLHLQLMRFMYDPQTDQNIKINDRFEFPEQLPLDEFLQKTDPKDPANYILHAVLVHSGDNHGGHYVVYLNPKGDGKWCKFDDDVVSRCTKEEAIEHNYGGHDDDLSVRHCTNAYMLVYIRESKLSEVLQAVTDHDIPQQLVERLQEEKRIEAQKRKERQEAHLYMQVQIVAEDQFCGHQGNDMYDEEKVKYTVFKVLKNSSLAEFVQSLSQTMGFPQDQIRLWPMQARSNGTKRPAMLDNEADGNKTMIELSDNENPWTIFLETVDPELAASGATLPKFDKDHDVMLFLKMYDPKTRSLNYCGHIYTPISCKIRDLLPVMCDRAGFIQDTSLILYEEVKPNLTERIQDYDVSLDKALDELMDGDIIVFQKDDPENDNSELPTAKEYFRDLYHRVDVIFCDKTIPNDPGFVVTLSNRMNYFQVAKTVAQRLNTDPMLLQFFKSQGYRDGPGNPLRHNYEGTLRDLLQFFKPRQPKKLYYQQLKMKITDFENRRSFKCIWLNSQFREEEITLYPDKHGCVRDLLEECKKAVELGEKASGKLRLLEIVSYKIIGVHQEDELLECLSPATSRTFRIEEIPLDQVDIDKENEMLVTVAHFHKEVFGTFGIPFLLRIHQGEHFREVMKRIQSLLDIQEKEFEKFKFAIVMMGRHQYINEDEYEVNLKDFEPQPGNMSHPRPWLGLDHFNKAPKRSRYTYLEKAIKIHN
Assay: Ub-AMC enzymatic assay with full-length USP7
Format: biochemical
Settings: Table 3; 6 hours pre-incubation, Ub-AMC; read-out: IC50 (μM), USP7 activity in USP7 assay

Sample answers from the record:
CN1CCN(CCC(=O)Nc2ccc3c(=O)n(CC4(O)CCN(C(=O)C(CCCNC(=O)c5ccc6c(Cl)cc(-c7ccccc7)nc6c5)Cc5ccccc5)CC4)cnc3c2)CC1 (stereo not drawn); 0.1 to 1 µM
O=C(CCN1CCOCC1)Nc1ccc2c(=O)n(CC3(O)CCN(C(=O)[C@H](Cc4ccccc4)NC(=O)COc4cccc5c(Cl)c6c(nc45)CCCC6)CC3)cnc2c1; 0.02 to 0.1 µM
O=C(CCN1CCOCC1)Nc1ccc2c(=O)n(CC3(O)CCN(C(=O)C(CCCNC(=O)c4ccc5c(Cl)c6c(nc5c4)CCCC6)Cc4ccc(F)c(C(F)(F)F)c4)CC3)cnc2c1 (stereo not drawn); 0.02 to 0.1 µM
C=CC(=O)Nc1ccccc1-c1cn([C@@H](Cc2ccccc2)C(=O)N2CCC(O)(Cn3cnc4cc(NC(=O)CCN5CCOCC5)ccc4c3=O)CC2)nn1; > 1 µM
O=C(NCCC[C@@H](Cc1ccccc1)C(=O)N1CCC(O)(Cn2cnc3c(N4CCOCC4)cccc3c2=O)CC1)c1ccc2c(Cl)c3c(nc2c1)CCCC3; 0.02 to 0.1 µM

# input Return IC50 measured with full length USP7 (Homo sapiens (Human)) given this compound: CN1CCN(CCC(=O)Nc2ccc3c(=O)n(CC4(O)CCN(C(=O)C(CCCNC(=O)c5ccc6c(Cl)cc(C7CCCCC7)nc6c5)Cc5ccccc5)CC4)cnc3c2)CC1 (stereo not drawn)
# output 0.02 to 0.1 µM

# input Return IC50 measured with full length USP7 (Homo sapiens (Human)) given this compound: O=C(NCCCC(Cc1ccccc1)C(=O)N1CCC(O)(Cn2cnc3cc(OCCN4CCOCC4)ccc3c2=O)CC1)c1ccc2c(Cl)c3c(nc2c1)CCCC3 (stereo not drawn)
# output 0.02 to 0.1 µM

# input Return IC50 measured with full length USP7 (Homo sapiens (Human)) given this compound: CN1CCN(CCC(=O)Nc2ccc3c(=O)n(CC4(O)CCN(C(=O)C(CCCNC(=O)c5ccc6c(Cl)c7c(nc6c5)CCCC7)c5ccccc5)CC4)cnc3c2)CC1 (stereo not drawn)
# output > 1 µM

# input Return IC50 measured with full length USP7 (Homo sapiens (Human)) given this compound: O=C(CCN1CCOCC1)Nc1ccc2c(=O)n(CC3(O)CCN(C(=O)C(CCCNC(=O)c4ccc5c(O)ccnc5c4)Cc4ccccc4)CC3)cnc2c1 (stereo not drawn)
# output > 1 µM

# input Return IC50 measured with full length USP7 (Homo sapiens (Human)) given this compound: "CN1CCN(CCC(=O)Nc2ccc3c(=O)n(CC4(O)CCN(C(=O)[C@@H](Cc5ccccc5)NC(=O)CNC(=O)c5ccc6c(Cl)ccnc6c5)CC4)cnc3c2)CC1"
# output 0.02 to 0.1 µM

# input Return IC50 measured with full length USP7 (Homo sapiens (Human)) given this compound: O=C(CCN1CCOCC1)Nc1ccc2c(=O)n(CC3(O)CCN(C(=O)C(CCCNC(=O)c4ccc5c(Cl)cc(C(F)(F)F)nc5c4)Cc4ccccc4)CC3)cnc2c1 (stereo not drawn)
# output 0.1 to 1 µM

# input Return IC50 measured with full length USP7 (Homo sapiens (Human)) given this compound: "C=CC(=O)Nc1cccc(-c2cn([C@@H](Cc3ccccc3)C(=O)N3CCC(O)(Cn4cnc5cc(NC(=O)CCN6CCOCC6)ccc5c4=O)CC3)nn2)c1"
# output > 1 µM
